- MEASURED_TARGET: UniProt:Q25704
- EXPERIMENT_SUMMARY: KinaseGlo enzyme inhibition assay
- Assay type: biochemical
- CONDITION_DESCRIPTION: 1 mM compound, 10 μM HMDP and 10 μM ATP, 20 min at RT; read-out: Inhib. at 1 mM (%)
Record true whenever inhibition at 1000 µM is at 20% or higher; record false when lower.

CCc1nc(N)[nH]c(=O)c1CCc1cn(-c2ccc(C(=O)O)cc2)nn1 [Compound 11]	true
CCc1nc(N)[nH]c(=O)c1Cc1cn(-c2ccc(C(=O)O)cc2)nn1 [Compound 8]	false
CCc1nc(N)[nH]c(=O)c1CCCc1cn(-c2ccc(C(=O)O)cc2)nn1 [Compound 13]	true
CCc1nc(N)[nH]c(=O)c1CCc1cn(-c2cccc(C(=O)O)c2)nn1 [Compound 12]	true
COc1nc(N)nc(N)c1/N=N/c1cccc([N+](=O)[O-])c1 [Compound 1]	false
Cc1nc(N)[nH]c(=O)c1Cc1cn(-c2cccc(C(=O)O)c2)nn1 [Compound 7]	false
COc1nc(N)nc(N)c1/N=N/c1cccc(C(=O)O)c1 [Compound 3]	true
COC(=O)c1cccc(/N=N/c2c(N)nc(N)nc2Cl)c1 [Compound 2]	false
CCc1nc(N)[nH]c(=O)c1Cc1cn(-c2cccc([N+](=O)[O-])c2)nn1 [Compound 10]	false

----------
- MEASURED_TARGET: PfHPPK-GFP (Plasmodium falciparum)
- EXPERIMENT_SUMMARY: KinaseGlo enzyme inhibition assay
- Type: biochemical
- CONDITION_DESCRIPTION: 1 mM compound, 10 μM HMDP and 10 μM ATP, 20 min at RT; read-out: Inhib. at 1 mM (%)
Threshold rule: inhibition at 1000 µM greater than or equal to 20% is met; below that, not met.

CCc1nc(N)[nH]c(=O)c1CCCc1cn(-c2cccc(C(=O)O)c2)nn1	met
Nc1nc(N)c(/N=N/c2ccccc2)c(N)n1	met
CCc1nc(N)[nH]c(=O)c1Cc1cn(-c2cccc(C(=O)O)c2)nn1	not met
Nc1nc(N)c(/N=N/c2cccc(C(=O)O)c2)c(N)n1	not met
Cc1nc(N)[nH]c(=O)c1Cc1cn(-c2ccc(C(=O)O)cc2)nn1	not met

----------
- MEASURED_TARGET: PfHPPK-GFP (Plasmodium falciparum)
- EXPERIMENT_SUMMARY: DSF-GTP (GFP-tagged protein differential scanning fluorimetry) thermal shift
- Type: binding
- CONDITION_DESCRIPTION: read-out: ΔTm (°C)
ATTRIBUTE_MEASURED: ΔTm at 1000 µM (°C)

CCc1nc(N)[nH]c(=O)c1CCCc1cn(-c2cccc(C(=O)O)c2)nn1 [Compound 14]	-1.2
Cc1nc(N)[nH]c(=O)c1Cc1cn(-c2ccc(C(=O)O)cc2)nn1 [Compound 6]	-1
Cc1nc(N)[nH]c(=O)c1Cc1cn(-c2cccc(C(=O)O)c2)nn1 [Compound 7]	-1
CCc1nc(N)[nH]c(=O)c1CCCc1cn(-c2ccc(C(=O)O)cc2)nn1 [Compound 13]	-1.5
COc1nc(N)nc(N)c1/N=N/c1cccc(C(=O)O)c1 [Compound 3]	-1

----------
- MEASURED_TARGET: PfHPPK-GFP (Plasmodium falciparum, UniProt Q25704)
- Sequence (Q25704 entry or part of it): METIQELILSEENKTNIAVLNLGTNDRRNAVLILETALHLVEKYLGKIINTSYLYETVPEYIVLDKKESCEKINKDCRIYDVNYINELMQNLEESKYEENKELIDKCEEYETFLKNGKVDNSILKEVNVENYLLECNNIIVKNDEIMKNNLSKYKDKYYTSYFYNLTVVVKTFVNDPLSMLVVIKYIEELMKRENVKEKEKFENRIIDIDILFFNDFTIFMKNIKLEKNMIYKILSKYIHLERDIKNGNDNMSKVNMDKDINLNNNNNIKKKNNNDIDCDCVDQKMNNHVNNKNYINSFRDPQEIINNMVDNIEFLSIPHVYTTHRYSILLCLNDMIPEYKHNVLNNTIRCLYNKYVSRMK
- EXPERIMENT_SUMMARY: DSF-GTP (GFP-tagged protein differential scanning fluorimetry) thermal shift
- Type: binding
- CONDITION_DESCRIPTION: read-out: ΔTm (°C)
ATTRIBUTE_MEASURED: ΔTm at 1000 µM (°C)

CCc1nc(N)[nH]c(=O)c1CCc1cn(-c2cccc(C(=O)O)c2)nn1	-1.3
COc1nc(N)nc(N)c1/N=N/c1cccc([N+](=O)[O-])c1	-1
CCc1nc(N)[nH]c(=O)c1Cc1cn(-c2cccc(C(=O)O)c2)nn1	-1
COC(=O)c1cccc(/N=N/c2c(N)nc(N)nc2Cl)c1	-1

----------
- MEASURED_TARGET: UniProt Q25704
ATTRIBUTE_MEASURED: IC50 (µM)

CCc1nc(N)[nH]c(=O)c1CCCc1cn(-c2cccc(C(=O)O)c2)nn1	814

----------
List of microsomal CLint values.
- EXPERIMENT_SUMMARY: Metabolic stability in rat liver microsomes
- CONDITION_DESCRIPTION: rat, liver microsomes
ATTRIBUTE_MEASURED: microsomal CLint (µL/min/mg)

CCc1nc(N)[nH]c(=O)c1CCCc1cn(-c2ccc(C(=O)O)cc2)nn1	7.38
CCc1nc(N)[nH]c(=O)c1CCc1cn(-c2ccc(C(=O)O)cc2)nn1	6.91
Nc1nc(N)c(/N=N/c2ccccc2)c(N)n1	82.4
CCc1nc(N)[nH]c(=O)c1CCCc1cn(-c2cccc(C(=O)O)c2)nn1	7.05

----------
- EXPERIMENT_SUMMARY: Metabolic stability in human liver microsomes
- CONDITION_DESCRIPTION: human, liver microsomes
We begin with a simple list: items and their reported microsomal CLint.
ATTRIBUTE_MEASURED: microsomal CLint (µL/min/mg)

CCc1nc(N)[nH]c(=O)c1CCCc1cn(-c2cccc(C(=O)O)c2)nn1	4.88
Nc1nc(N)c(/N=N/c2ccccc2)c(N)n1	363

----------
- EXPERIMENT_SUMMARY: Metabolic stability in human liver microsomes
- CONDITION_DESCRIPTION: human, liver microsomes
Property: microsomal CLint; scope: individual molecules
ATTRIBUTE_MEASURED: microsomal CLint

COc1nc(N)nc(N)c1/N=N/c1cccc(C(=O)O)c1 [Compound 3]	< 3 µL/min/mg
CCc1nc(N)[nH]c(=O)c1CCCc1cn(-c2ccc(C(=O)O)cc2)nn1 [Compound 13]	< 3 µL/min/mg
CCc1nc(N)[nH]c(=O)c1CCc1cn(-c2ccc(C(=O)O)cc2)nn1 [Compound 11]	< 3 µL/min/mg
